protocol: total protein half-life in vivo (active degradation + dilution); higher = more stable protein
cond: wild type E. coli NCM3722; growth: N-lim chemostat; doubling time 6 h
observable: total protein half-life in vivo (h)
Output spec: scalar in h, unitless text.

MAYSKIRQPKLSDVIEQQLEFLILEGTLRPGEKLPPERELAKQFDVSRPSLREAIQRLEAKGLLLRRQGGGTFVQSSLWQSFSDPLVELLSDHPESQYDLLETRHALEGIAAYYAALRSTDEDKERIRELHHAIELAQQSGDLDAESNAVLQYQIAVTEAAHNVVLLHLLRCMEPMLAQNVRQNFELLYSRREMLPLVSSHRTRIFEAIMAGKPEEAREASHRHLAFIEEILLDRSREESRRERSLRRLEQRKN [P0ACL9] | 4.53
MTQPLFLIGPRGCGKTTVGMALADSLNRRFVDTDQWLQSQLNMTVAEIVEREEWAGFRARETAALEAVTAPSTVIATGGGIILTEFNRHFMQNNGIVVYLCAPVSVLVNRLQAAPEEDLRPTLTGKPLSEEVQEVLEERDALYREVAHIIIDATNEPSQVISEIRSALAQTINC [P0A6E1] | 2.59
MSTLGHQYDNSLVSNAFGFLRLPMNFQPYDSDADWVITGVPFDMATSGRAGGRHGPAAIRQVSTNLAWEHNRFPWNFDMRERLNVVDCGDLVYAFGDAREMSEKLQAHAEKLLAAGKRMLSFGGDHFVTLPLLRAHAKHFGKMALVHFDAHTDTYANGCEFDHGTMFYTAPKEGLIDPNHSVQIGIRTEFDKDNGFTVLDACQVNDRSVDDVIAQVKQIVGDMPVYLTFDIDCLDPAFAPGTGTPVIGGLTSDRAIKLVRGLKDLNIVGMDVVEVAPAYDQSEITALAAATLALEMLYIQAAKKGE | 6.72

Q: Would you kindly share the measured total protein half-life in vivo for `MERLKRMSVFAKVVEFGSFTAAARQLQMSVSSISQTVSKLEDELQVKLLNRSTRSIGLTEAGRIYYQGCRRMLHEVQDVHEQLYAFNNTPIGTLRIGCSSTMAQNVLAGLTAKMLKEYPGLSVNLVTGIPAPDLIADGLDVVIRVGALQDSSLFSRRLGAMPMVVCAAKSYLTQYGIPEKPADLSSHSWLEYSVRPDNEFELIAPEGISTRLIPQGRFVTNDPMTLVRWLTAGAGIAYVPLMWVINEINRGELEILLPRYQSDPRPVYALYTEKDKLPLKVQVVINSLTDYFVEVGKLFQEMHGRGKEK` ?
Ans: 5.69

Q: Would you kindly share the measured total protein half-life in vivo for `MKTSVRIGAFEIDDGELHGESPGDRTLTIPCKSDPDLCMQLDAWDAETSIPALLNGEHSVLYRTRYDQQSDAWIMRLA` ?
Ans: 0.85

====

protocol: total protein half-life in vivo (active degradation + dilution); higher = more stable protein
cond: wild type E. coli NCM3722; growth: C-lim chemostat; doubling time 6 h
observable: total protein half-life in vivo (h)
Output spec: scalar in h, unitless text.

Solved entries:
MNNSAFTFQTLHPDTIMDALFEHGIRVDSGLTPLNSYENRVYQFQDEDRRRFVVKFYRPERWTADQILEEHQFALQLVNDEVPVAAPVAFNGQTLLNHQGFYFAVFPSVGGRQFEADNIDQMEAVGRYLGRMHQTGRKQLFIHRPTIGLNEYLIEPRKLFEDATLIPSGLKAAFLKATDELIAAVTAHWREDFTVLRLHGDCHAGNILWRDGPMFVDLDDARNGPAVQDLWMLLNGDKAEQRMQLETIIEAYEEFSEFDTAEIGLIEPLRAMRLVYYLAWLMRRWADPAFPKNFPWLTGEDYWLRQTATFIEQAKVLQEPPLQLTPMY [P0C0K3] | 5.38
MKYDLIIIGSGSVGAAAGYYATRAGLNVLMTDAHMPPHQHGSHHGDTRLIRHAYGEGEKYVPLVLRAQTLWDELSRHNEEDPIFVRSGVINLGPADSTFLANVAHSAEQWQLNVEKLDAQGIMARWPEIRVPDNYIGLFETDSGFLRSELAIKTWIQLAKEAGCAQLFNCPVTAIRHDDDGVTIETADGEYQAKKAIVCAGTWVKDLLPELPVQPVRKVFAWYQADGRYSVKNKFPAFTGELPNGDQYYGFPAENDALKIGKHNGGQVIHSADERVPFAEVASDGSEAFPFLRNVLPGIGCCLYGAACTYDNSPDEDFIIDTLPGHDNTLLITGLSGHGFKFASVLGEIAADFAQDKKSDFDLTPFRLSRFQ | 5.49

Shift focus to the following entry.
Q: Would you kindly share the measured total protein half-life in vivo for MSNQFGDTRIDDDLTLLSETLEEVLRSSGDPADQKYVELKARAEKALDDVKKRVSQASDSYYYRAKQAVYRADDYVHEKPWQGIGVGAAVGLVLGLLLARR [P0AEH5] ?
Ans: 6.46

====

protocol: total protein half-life in vivo (active degradation + dilution); higher = more stable protein
cond: E. coli NCM3722 delta-lon; growth: N-lim chemostat; doubling time 6 h
Below, each of the sequences is paired with its reported total protein half-life in vivo value.
Output spec: scalar in h, unitless text.

Solved entries:
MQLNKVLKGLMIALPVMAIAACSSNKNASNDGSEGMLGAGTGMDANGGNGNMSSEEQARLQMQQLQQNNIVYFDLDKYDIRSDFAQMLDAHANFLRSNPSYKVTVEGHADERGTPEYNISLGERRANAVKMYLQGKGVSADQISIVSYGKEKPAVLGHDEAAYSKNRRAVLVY [P0A912] | 6.35
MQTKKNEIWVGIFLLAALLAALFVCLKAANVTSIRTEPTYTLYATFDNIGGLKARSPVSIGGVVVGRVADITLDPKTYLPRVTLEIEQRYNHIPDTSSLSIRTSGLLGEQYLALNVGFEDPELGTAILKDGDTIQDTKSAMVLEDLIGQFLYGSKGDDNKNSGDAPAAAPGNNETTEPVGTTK | 6.27
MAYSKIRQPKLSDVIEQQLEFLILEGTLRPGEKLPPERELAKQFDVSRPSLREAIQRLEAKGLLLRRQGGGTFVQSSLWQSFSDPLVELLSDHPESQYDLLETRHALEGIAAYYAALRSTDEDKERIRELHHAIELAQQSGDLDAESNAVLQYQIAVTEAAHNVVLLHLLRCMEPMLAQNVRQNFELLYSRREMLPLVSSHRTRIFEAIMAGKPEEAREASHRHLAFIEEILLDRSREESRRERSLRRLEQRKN [P0ACL9] | 4.33
MKGGKRVQTARPNRINGEIRAQEVRLTGLEGEQLGIVSLREALEKAEEAGVDLVEISPNAEPPVCRIMDYGKFLYEKSKSSKEQKKKQKVIQVKEIKFRPGTDEGDYQVKLRSLIRFLEEGDKAKITLRFRGREMAHQQIGMEVLNRVKDDLQELAVVESFPTKIEGRQMIMVLAPKKKQ [P0A707] | 6.49
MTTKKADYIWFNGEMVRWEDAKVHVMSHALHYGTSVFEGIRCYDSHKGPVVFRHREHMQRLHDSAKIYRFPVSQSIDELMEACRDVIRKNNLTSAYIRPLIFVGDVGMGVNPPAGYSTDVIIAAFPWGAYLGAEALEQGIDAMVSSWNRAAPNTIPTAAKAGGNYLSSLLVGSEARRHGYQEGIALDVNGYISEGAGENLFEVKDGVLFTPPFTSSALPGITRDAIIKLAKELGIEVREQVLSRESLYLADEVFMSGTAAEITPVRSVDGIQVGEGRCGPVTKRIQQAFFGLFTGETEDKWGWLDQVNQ [P0AB80] | 4.94

Q: Would you kindly share the measured total protein half-life in vivo for `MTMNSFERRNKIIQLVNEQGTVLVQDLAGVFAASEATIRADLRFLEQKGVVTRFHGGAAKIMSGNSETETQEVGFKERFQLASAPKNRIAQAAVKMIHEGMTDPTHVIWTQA` ?
Ans: 5.59

Q: Would you kindly share the measured total protein half-life in vivo for `MAIALVTGGSRGIGRATALLLAQEGYTVAVNYQQNLHAAQEVMNLITQAGGKAFVLQADISDENQVVAMFTAIDQHDEPLAALVNNAGILFTQCTVENLTAERINRVLSTNVTGYFLCCREAVKRMALKNGGSGGAIVNVSSVASRLGSPGEYVDYAASKGAIDTLTTGLSLEVAAQGIRVNCVRPGFIYTEMHASGGEPGRVDRVKSNIPMQRGGQAEEVAQAIVWLLSDKASYVTGSFIDLAGGK` ?
Ans: 5.69

====

protocol: total protein half-life in vivo (active degradation + dilution); higher = more stable protein
cond: wild type E. coli NCM3722; growth: P-lim chemostat; doubling time 6 h
observable: total protein half-life in vivo (h)
Output spec: scalar in h, unitless text.

MNKSMLAGIGIGVAAALGVAAVASLNVFERGPQYAQVVSATPIKETVKTPRQECRNVTVTHRRPVQDENRITGSVLGAVAGGVIGHQFGGGRGKDVATVVGALGGGYAGNQIQGSLQESDTYTTTQQRCKTVYDKSEKMLGYDVTYKIGDQQGKIRMDRDPGTQIPLDSNGQLILNNKV [P0AB35] | 0.416
MSQPLNADQELVSDVVACQLVIKQILDVLDVIAPVEVREKMSSQLKNIDFTNHPAAADPVTMRAIQKAIALIELKFTPQGESH [P0AD10] | 4.76
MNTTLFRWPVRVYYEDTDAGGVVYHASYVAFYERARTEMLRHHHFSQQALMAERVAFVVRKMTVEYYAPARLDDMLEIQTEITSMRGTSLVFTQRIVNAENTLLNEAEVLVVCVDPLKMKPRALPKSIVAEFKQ [P0A8Z3] | 5.68

Q: Would you kindly share the measured total protein half-life in vivo for `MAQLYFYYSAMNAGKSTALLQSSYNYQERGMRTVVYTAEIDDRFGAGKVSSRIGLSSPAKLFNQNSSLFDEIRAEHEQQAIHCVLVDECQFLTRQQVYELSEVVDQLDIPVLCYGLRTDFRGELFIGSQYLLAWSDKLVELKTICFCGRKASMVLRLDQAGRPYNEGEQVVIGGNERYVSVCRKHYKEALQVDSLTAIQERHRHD` ?
Ans: 5.92

Q: Would you kindly share the measured total protein half-life in vivo for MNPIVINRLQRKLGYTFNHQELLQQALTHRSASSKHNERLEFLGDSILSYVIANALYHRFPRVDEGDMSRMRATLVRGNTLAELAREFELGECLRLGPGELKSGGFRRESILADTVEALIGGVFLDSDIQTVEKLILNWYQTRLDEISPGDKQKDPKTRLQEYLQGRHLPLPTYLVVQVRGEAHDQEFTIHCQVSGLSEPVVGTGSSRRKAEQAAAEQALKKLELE [P0A7Y0] ?
Ans: 5.51

Q: Would you kindly share the measured total protein half-life in vivo for `MRTTSFAKVAALCGLLALSGCASKITQPDKYSGFLNNYSDLKETTSATGKPVLRWVDPSFDQSKYDSIVWNPITYYPVPKPSTQVGQKVLDKILNYTNTEMKEAIAQRKPLVTTAGPRSLIFRGAITGVDTSKEGLQFYEVVPVALVVAGTQMATGHRTMDTRLYFEGELIDAATNKPVIKVVRQGEGKDLNNESTPMAFENIKQVIDDMATDATMFDVNKK` ?
Ans: 5.82

Q: Would you kindly share the measured total protein half-life in vivo for `MKTALLLEKLEGQLATLRQRCAPVSQFATLSARFDRHLFQTRATTLQACLDEAGDNLAALRHAVEQQQLPQVAWLAEHLAAQLEAIAREASAWSLREWDSAPPKIARWQRKRIQHQDFERRLREMVAERRARLARVTDLVEQQTLHREVEAYEARLARCRHALEKIENRLARLTR` ?
Ans: 2.92

Q: Would you kindly share the measured total protein half-life in vivo for `MVLWQSDLRVSWRAQWLSLLIHGLVAAVILLMPWPLSYTPLWMVLLSLVVFDCVRSQRRINARQGEIRLLMDGRLRWQGQEWSIVKAPWMIKSGMMLRLRSDGGKRQHLWLAADSMDEAEWRDLRRILLQQETQR` ?
Ans: 3.85

Q: Would you kindly share the measured total protein half-life in vivo for MILIIYAHPYPHHSHANKRMLEQARTLEGVEIRSLYQLYPDFNIDIAAEQEALSRADLIVWQHPMQWYSIPPLLKLWIDKVFSHGWAYGHGGTALHGKHLLWAVTTGGGESHFEIGAHPGFDVLSQPLQATAIYCGLNWLPPFAMHCTFICDDETLEGQARHYKQRLLEWQEAHHG [P0A754] ?
Ans: 6.43

Q: Would you kindly share the measured total protein half-life in vivo for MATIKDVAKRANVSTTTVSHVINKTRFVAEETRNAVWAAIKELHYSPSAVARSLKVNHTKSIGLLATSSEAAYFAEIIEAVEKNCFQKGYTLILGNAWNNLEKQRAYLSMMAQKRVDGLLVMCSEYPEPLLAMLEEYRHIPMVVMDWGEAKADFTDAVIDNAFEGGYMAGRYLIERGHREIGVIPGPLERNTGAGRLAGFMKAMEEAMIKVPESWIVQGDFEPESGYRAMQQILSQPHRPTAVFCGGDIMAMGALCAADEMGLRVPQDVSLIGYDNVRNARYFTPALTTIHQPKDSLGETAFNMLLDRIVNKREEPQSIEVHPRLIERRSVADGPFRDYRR [P0ACP7] ?
Ans: 5.29

Q: Would you kindly share the measured total protein half-life in vivo for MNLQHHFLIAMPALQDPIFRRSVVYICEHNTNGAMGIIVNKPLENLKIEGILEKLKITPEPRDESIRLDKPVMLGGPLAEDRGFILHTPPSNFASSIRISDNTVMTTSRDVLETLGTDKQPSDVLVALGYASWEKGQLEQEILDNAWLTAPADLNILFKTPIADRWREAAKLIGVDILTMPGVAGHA [P0A8W5] ?
Ans: 5.08
